Test: Primary qHTS for delayed death inhibitors of the malarial parasite plastid, 96 hour incubation
Settings: P. falciparum luciferase reporter growth; series mostly up to 28.7 µM
Text: The goal of this screen is to discover new antimalarial compounds that act by inhibiting the development of the apicoplast in the malarial parasite Plasmodium falciparum. […] We have developed a cell-based assay that measures parasite growth based on the expression of an integrated copy of a firefly luciferase reporter. […] Growth inhibition is detected by a decrease in luciferase activity. […]
The campaign covered roughly 320,000 compounds. About 22,000 (6.9%) were called active. About 27% were inconclusive and are not listed. Calls follow the shape of the dose curve; as a rule, active = well fitted inhibition curve with a large enough effect; inconclusive = small, poorly fitted or top-dose-only effect, or another doubt; inactive = no such curve, though single readings can be large or run the other way. This is one part of a sample in which actives are shown more often than they occur.
Respond using exactly one of the listed classes: active, inactive

INSERT INTO results (compound, group) VALUES
  ('CCNC(=O)N1CCN(S(=O)(=O)c2ccc3c(c2)OCCCO3)CC1', 'inactive');

Answer briefly: the call reported for "Cc1ccc(NC(=S)N2CCCC(c3ccccc3)=N2)cc1" in this assay.
inactive

What was the test verdict on "CCOC(=O)CNc1nc(Cl)nc(Nc2ccc(OC)cc2OC)n1" ?
inactive

Answer briefly: the call reported for "O=C(CCNC(=O)c1ccc(Br)cc1)NCCCc1ccccc1" in this assay.
inactive

Hi, do you know how "CC1(C)O[C@@H]2[C@H](O1)[C@@H](COS(=O)(=O)O)O[C@H]2n1cnc2c(=O)[nH]cnc21" came out in this test?
inactive

Recorded test call requested for "CCOC(=O)c1cc(NC(=O)SCC(=O)O)c(C)nc1C"
active

# lookup: test call for "CCOC(=O)c1ccccc1NC(=O)CSc1nc2ccccc2c(=O)[nH]1"
inactive

From: PubChem BioAssay AID504834
